Target: alpha-glucosidase enzyme from Saccharomyces cerevisiae (EC 3.2.1.20) (Saccharomyces cerevisiae, UniProt P53341)
Construct: purchased Sigma-Aldrich
Sequence (P53341 whole entry): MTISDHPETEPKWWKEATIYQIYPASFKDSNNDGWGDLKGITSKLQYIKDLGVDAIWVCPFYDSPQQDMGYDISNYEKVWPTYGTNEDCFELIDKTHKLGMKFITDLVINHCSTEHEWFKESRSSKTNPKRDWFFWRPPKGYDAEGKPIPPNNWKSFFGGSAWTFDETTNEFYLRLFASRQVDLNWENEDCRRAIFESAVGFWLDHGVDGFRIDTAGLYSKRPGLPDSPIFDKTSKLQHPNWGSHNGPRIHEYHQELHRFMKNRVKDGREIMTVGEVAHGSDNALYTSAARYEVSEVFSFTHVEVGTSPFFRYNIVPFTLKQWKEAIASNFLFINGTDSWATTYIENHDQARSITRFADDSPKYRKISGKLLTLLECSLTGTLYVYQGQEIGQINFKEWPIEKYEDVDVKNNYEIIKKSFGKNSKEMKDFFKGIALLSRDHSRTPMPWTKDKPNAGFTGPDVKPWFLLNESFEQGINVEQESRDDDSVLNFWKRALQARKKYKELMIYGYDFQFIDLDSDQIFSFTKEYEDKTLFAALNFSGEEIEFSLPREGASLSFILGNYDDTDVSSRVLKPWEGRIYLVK
Test: biochemical
Assay type: biochemical
Procedure: Briefly, the enzyme from Saccharomyces cerevisiae (EC 3.2.1.20) and the pNPG substrate were dissolved in 0.1 M phosphate buffer (pH 7), which was enriched by bovine serum albumin and sodium azide. Standards and samples were suspended in 20% (v/v) of DMSO in a water solution. […] The velocity was examined by a linear relationship equation between absorbance and time, Equation (1). The percent inhibition was determined for the highest velocity as:% Inhibition = (V control − V sample)/(V control) × 100(2) […]
Observation Type: pIC50
Answers are plain numbers, as −log10 of the molar value.

Summary for this compound, C[C@@H]1O[C@@H](Oc2c(-c3ccc(O)c(O)c3)oc3cc(O)cc(O)c3c2=O)[C@H](O)[C@H](O)[C@H]1O : pIC50 is 3.96

Just for reference, paper PMC8512368 is where these values come from.
